target: KV7.2/3 channel (Homo sapiens, UniProt O43525+O43526); assay: KV7.2/3 channel opening activity, thallium-flux FLIPR Potassium Assay in HEK-293 cells overexpressing KV7.2/3; set-up: dose or concentration left out as unconfirmed; conditions: HEK293E, read-out: Efficacy
Sequence (O43525 whole entry): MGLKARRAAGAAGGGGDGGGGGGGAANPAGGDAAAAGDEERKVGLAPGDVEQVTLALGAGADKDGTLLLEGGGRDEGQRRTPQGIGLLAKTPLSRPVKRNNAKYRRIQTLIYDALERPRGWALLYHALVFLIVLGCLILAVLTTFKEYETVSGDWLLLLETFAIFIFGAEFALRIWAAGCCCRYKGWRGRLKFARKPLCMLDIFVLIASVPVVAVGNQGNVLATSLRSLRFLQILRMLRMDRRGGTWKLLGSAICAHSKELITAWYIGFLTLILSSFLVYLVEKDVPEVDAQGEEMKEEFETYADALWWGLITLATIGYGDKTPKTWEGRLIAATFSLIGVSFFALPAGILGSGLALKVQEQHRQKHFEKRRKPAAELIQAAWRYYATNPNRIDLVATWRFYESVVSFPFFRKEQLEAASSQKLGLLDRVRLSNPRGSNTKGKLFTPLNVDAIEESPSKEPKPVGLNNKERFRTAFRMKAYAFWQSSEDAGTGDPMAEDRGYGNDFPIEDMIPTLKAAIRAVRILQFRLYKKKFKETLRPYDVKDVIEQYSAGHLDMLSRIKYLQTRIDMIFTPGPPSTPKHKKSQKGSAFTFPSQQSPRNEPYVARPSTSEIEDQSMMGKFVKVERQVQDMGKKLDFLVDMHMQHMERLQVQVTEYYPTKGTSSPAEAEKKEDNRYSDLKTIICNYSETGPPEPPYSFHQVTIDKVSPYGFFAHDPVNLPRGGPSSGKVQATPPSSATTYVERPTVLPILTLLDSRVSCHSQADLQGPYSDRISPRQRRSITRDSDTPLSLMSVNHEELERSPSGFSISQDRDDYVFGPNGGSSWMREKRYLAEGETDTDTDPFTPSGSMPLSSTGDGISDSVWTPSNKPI
Sequence (O43526 whole entry): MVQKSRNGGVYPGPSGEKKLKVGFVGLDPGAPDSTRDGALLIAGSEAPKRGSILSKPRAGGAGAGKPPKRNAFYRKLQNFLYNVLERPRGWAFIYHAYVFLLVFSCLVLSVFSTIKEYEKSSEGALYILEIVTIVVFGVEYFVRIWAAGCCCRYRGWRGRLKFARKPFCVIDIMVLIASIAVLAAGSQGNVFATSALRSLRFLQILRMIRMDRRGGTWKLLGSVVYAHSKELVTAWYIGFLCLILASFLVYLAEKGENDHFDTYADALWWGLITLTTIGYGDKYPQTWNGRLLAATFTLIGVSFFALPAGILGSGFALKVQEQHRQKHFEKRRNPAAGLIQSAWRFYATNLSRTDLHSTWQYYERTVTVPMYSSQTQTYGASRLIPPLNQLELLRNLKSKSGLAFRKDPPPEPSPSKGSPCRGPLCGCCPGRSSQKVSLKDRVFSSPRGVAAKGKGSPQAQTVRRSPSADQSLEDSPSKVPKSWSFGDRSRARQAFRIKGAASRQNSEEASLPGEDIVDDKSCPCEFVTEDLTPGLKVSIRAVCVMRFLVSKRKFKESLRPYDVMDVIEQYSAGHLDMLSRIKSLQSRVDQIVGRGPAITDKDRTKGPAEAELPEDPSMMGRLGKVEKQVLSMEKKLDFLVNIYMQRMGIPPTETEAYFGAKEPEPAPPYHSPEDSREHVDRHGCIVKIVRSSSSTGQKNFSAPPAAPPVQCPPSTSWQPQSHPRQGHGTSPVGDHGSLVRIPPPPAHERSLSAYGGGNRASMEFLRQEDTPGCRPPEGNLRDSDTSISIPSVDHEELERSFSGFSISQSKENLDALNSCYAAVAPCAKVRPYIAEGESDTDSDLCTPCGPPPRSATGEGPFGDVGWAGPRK
For each of the compounds below, state its Emax.
Write the number in % without appending the unit.

Ask | Report measured Emax; entry is `Cc1cc(CNc2ccc(F)cc2)cnc1NC(=O)CC(C)(C)C`
Reply | 153

Ask | Report measured Emax; entry is `CCCC(=O)Nc1ccc(CNc2ccc(F)cc2)cc1C`
Reply | 176

Ask | Report measured Emax; entry is `CCCC(=O)Nc1ncc(CNc2ccc(F)cc2)cc1Br`
Reply | 163

Ask | Report measured Emax; entry is `CCCC(=O)Nc1ncc(CNc2ccc(F)cc2)cc1C1CC1`
Reply | 138

Ask | Report measured Emax; entry is `CCCC(=O)Nc1ccc(CNc2ccc(F)cc2)cc1F`
Reply | 167

Ask | Report measured Emax; entry is `CCCC(=O)Nc1c(C)cc(CNc2ccc(F)cc2)cc1C`
Reply | 143

Ask | Report measured Emax; entry is `Cc1cc(CNc2ccc(F)cc2)ccc1NC(=O)CCn1cccn1`
Reply | 144

Ask | Report measured Emax; entry is `CCOC(=O)Nc1ccc(NCc2ccc(F)cc2)nc1N`
Reply | 100

Ask | Report measured Emax; entry is `CCCC(=O)Nc1ncc(CNc2ccc(F)cc2)cc1C`
Reply | 89

Ask | Report measured Emax; entry is `CCOC(=O)Nc1ccc(NCc2ccc(F)cc2)cc1N`
Reply | 119

Ask | Report measured Emax; entry is `Cc1nc(CNc2ccc(F)cc2)ccc1NC(=O)OCC(C)C`
Reply | 94

Ask | Report measured Emax; entry is `CCCC(=O)Nc1ccc(CNc2ccc(F)cc2)cc1C(F)(F)F.Cl`
Reply | 156

Ask | Report measured Emax; entry is `CCCC(=O)Nc1ccc(CNc2ccc(C)cn2)cc1C`
Reply | 70

* * *

For each of the compounds below, state its logD7.4 (single determination).
experiment: LogD7.4 estimation by HPLC-based method; type: physicochemical; settings: calculated from retention time with one calibration function (A–F), Table S7

Ask | Report measured logD7.4 (single determination); entry is `CCOC(=O)Nc1ccc(CCc2ccc(F)cc2)nc1N`
Reply | 2.983

Ask | Report measured logD7.4 (single determination); entry is `CCCC(=O)Nc1ncc(CNc2ccc(F)cc2)cc1C`
Reply | 2.341

Ask | Report measured logD7.4 (single determination); entry is `CCCC(=O)Nc1ccc(CNc2ccc(C)cn2)cc1C`
Reply | 2.263

Ask | Report measured logD7.4 (single determination); entry is `CCCC(=O)Nc1ccc(CNc2ccc(F)cc2)cc1C(F)(F)F.Cl`
Reply | 2.991

Ask | Report measured logD7.4 (single determination); entry is `Cc1cc(CNc2ccc(F)cc2)ccc1NC(=O)c1ccccc1CO`
Reply | 2.899

Ask | Report measured logD7.4 (single determination); entry is `Cc1cc(CNc2ccc(F)cc2)cnc1NC(=O)CC(C)(C)C`
Reply | 3.039

Ask | Report measured logD7.4 (single determination); entry is `CCCC(=O)Nc1ncc(CNc2ccc(F)cc2)cc1C1CC1`
Reply | 2.772

Ask | Report measured logD7.4 (single determination); entry is `CCCC(=O)Nc1c(C)cc(CNc2ccc(F)cc2)cc1C`
Reply | 3.023

Ask | Report measured logD7.4 (single determination); entry is `Cc1nc(CNc2ccc(F)cc2)ccc1NC(=O)OCC(C)C`
Reply | 3.408

Ask | Report measured logD7.4 (single determination); entry is `CCCC(=O)Nc1ccc(CNc2ccc(F)cc2)cc1F`
Reply | 2.980

Ask | Report measured logD7.4 (single determination); entry is `CCCC(=O)Nc1ncc(CNc2ccc(F)cc2)cc1Br`
Reply | 2.714

* * *

tested on: TAMH mouse liver cell line; conditions: mouse, 24 h
For each of the molecules below, state its LD25 (concentration to reduce cell viability by 25 %).
Write the number in µM without appending the unit.

Ask | Report measured LD25 (concentration to reduce cell viability by 25 %); entry is CCCC(=O)Nc1ncc(CNc2ccc(F)cc2)cc1C [43 a]
Reply | 110

Ask | Report measured LD25 (concentration to reduce cell viability by 25 %); entry is Cc1cc(CNc2ccc(F)cc2)ccc1NC(=O)c1ccccc1CO [compound 48]
Reply | 70

Ask | Report measured LD25 (concentration to reduce cell viability by 25 %); entry is CCCC(=O)Nc1ncc(CNc2ccc(F)cc2)cc1C1CC1 [43 c]
Reply | 76

Ask | Report measured LD25 (concentration to reduce cell viability by 25 %); entry is Cc1cc(CNc2ccc(F)cc2F)ccc1NC(=O)c1cccnc1 [35 e]
Reply | 41

Ask | Report measured LD25 (concentration to reduce cell viability by 25 %); entry is CCOC(=O)Nc1ccc(C#Cc2ccccc2)nc1N [compound 21]
Reply | 63

Ask | Report measured LD25 (concentration to reduce cell viability by 25 %); entry is Cc1nc(CNc2ccc(F)cc2)ccc1NC(=O)OCC(C)C [compound 27]
Reply | 76

* * *

system: TAMH mouse liver cell line; details: mouse, 24 h
OUTCOME MEASURE: LD50 (concentration to reduce cell viability by 50 %)

Ask | Report measured LD50 (concentration to reduce cell viability by 50 %); entry is CCCC(=O)Nc1ccc(CNc2ccc(F)cc2)cc1C [35 b]
Reply | >125 µM

Ask | Report measured LD50 (concentration to reduce cell viability by 50 %); entry is CCCC(=O)Nc1c(C)cc(CNc2ccc(F)cc2)cc1C [35 a]
Reply | >125 µM

Ask | Report measured LD50 (concentration to reduce cell viability by 50 %); entry is Cc1cc(CNc2ccc(F)cc2)ccc1NC(=O)CCn1cccn1 [compound 53]
Reply | >63 µM

Ask | Report measured LD50 (concentration to reduce cell viability by 50 %); entry is CCCC(=O)Nc1ccc(CNc2ccc(C)cn2)cc1C [35 f]
Reply | >125 µM

Ask | Report measured LD50 (concentration to reduce cell viability by 50 %); entry is CCOC(=O)Nc1ccc(CCc2ccc(F)cc2)nc1N [compound 7]
Reply | >63 µM

Ask | Report measured LD50 (concentration to reduce cell viability by 50 %); entry is CCCC(=O)Nc1ncc(CNc2ccc(F)cc2)cc1C1CC1 [43 c]
Reply | >125 µM

Ask | Report measured LD50 (concentration to reduce cell viability by 50 %); entry is Cc1nc(CNc2ccc(F)cc2)ccc1NC(=O)OCC(C)C [compound 27]
Reply | >250 µM

Ask | Report measured LD50 (concentration to reduce cell viability by 50 %); entry is CCCC(=O)Nc1ncc(CNc2ccc(F)cc2)cc1Br [42 a]
Reply | >63 µM

Ask | Report measured LD50 (concentration to reduce cell viability by 50 %); entry is Cc1cc(CNc2ccc(F)cc2)cnc1NC(=O)CC(C)(C)C [43 b]
Reply | >125 µM

Ask | Report measured LD50 (concentration to reduce cell viability by 50 %); entry is Cc1cc(CNc2ccc(F)cc2F)ccc1NC(=O)c1cccnc1 [35 e]
Reply | >125 µM

Ask | Report measured LD50 (concentration to reduce cell viability by 50 %); entry is CCOC(=O)Nc1ccc(C#Cc2ccccc2)nc1N [compound 21]
Reply | >125 µM

Ask | Report measured LD50 (concentration to reduce cell viability by 50 %); entry is CCCC(=O)Nc1ncc(CNc2ccc(F)cc2)cc1C [43 a]
Reply | >125 µM

Ask | Report measured LD50 (concentration to reduce cell viability by 50 %); entry is Cc1cc(CNc2ccc(F)cc2)ccc1NC(=O)c1ccccc1CO [compound 48]
Reply | >125 µM

Ask | Report measured LD50 (concentration to reduce cell viability by 50 %); entry is CCCC(=O)Nc1ccc(CNc2ccc(F)cc2)cc1F [35 c]
Reply | >63 µM

Ask | Report measured LD50 (concentration to reduce cell viability by 50 %); entry is CCCC(=O)Nc1ccc(CNc2ccc(F)cc2)cc1C(F)(F)F.Cl [35 d]
Reply | >125 µM

* * *

test: LogD7.4 estimation by HPLC-based method; assay type: physicochemical; conditions: pH 7.4, estimated by HPLC-based method, pH 7.4; read-out: LogD 7.4
For each of the compounds below, state its chromatographic logD.
Provide a numeric answer; units are not to be included.

Ask | Report measured chromatographic logD; entry is `CCOC(=O)Nc1ccc(CCc2ccc(F)cc2)nc1N`
Reply | 3

Ask | Report measured chromatographic logD; entry is `CCCC(=O)Nc1ncc(CNc2ccc(F)cc2)cc1Br`
Reply | 2.7

Ask | Report measured chromatographic logD; entry is `CCCC(=O)Nc1ccc(CNc2ccc(F)cc2)cc1F`
Reply | 3

Ask | Report measured chromatographic logD; entry is `Cc1cc(CNc2ccc(F)cc2F)ccc1NC(=O)c1cccnc1`
Reply | 3

Ask | Report measured chromatographic logD; entry is `CCCC(=O)Nc1ncc(CNc2ccc(F)cc2)cc1C1CC1`
Reply | 2.8

Ask | Report measured chromatographic logD; entry is `Cc1cc(CNc2ccc(F)cc2)ccc1NC(=O)c1ccccc1CO`
Reply | 2.9

Ask | Report measured chromatographic logD; entry is `Cc1cc(CNc2ccc(F)cc2)cnc1NC(=O)CC(C)(C)C`
Reply | 3

Ask | Report measured chromatographic logD; entry is `Cc1cc(CNc2ccc(F)cc2)ccc1NC(=O)CCn1cccn1`
Reply | 2.9

Ask | Report measured chromatographic logD; entry is `CCCC(=O)Nc1ccc(CNc2ccc(C)cn2)cc1C`
Reply | 2.3

Ask | Report measured chromatographic logD; entry is `CCCC(=O)Nc1ccc(CNc2ccc(F)cc2)cc1C(F)(F)F.Cl`
Reply | 3
